# tested.target: RORγ/γt (Mus musculus, UniProt P51450, T352K)
# Sequence (P51450 with tags, fused parts or gaps T352K): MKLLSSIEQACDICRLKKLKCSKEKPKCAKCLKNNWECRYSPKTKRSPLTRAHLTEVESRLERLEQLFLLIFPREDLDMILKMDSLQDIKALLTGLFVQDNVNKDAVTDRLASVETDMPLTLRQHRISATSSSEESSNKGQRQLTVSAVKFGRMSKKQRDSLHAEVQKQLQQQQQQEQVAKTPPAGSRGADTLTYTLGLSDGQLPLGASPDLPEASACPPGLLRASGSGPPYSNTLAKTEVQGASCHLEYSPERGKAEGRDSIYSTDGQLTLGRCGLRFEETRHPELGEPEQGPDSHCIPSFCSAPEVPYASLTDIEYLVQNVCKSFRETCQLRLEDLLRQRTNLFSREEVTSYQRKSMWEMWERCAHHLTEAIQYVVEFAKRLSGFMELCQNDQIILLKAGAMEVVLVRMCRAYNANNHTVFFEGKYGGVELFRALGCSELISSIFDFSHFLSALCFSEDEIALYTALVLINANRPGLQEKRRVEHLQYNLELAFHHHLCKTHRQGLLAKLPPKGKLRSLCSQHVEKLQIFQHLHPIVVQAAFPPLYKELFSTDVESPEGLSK
# experiment.description: RORγ/γt-luc reporter S2 cell assay / HTS (firefly luciferase)
# conditions.used: RORγ/γt HTS concentration response curve class
For each record, write down the corresponding Curve Class.
Please reply with the value in numeric form only.

Assay RORγ/γt (Mus musculus, UniProt P51450, T352K), sample CCOC(=O)[C@@H]1[C@H]2COc3cc(OC)ccc3[C@@H]2N2C(=O)N(c3cccc(F)c3)C(=O)[C@@]12C , Curve Class read: −2.1

Noted Curve Class for CCOC(=O)[C@@H]1[C@H]2COc3ccccc3[C@H]2N2C(=O)N(c3ccc(Cl)cc3)C(=O)[C@@]12C , tested on RORγ/γt (Mus musculus, UniProt P51450, T352K): 4

Form: item CCOC(=O)[C@@H]1[C@H]2COc3cc(OC)ccc3[C@H]2N2C(=O)N(c3ccc(F)cc3)C(=O)[C@]12C ; test system RORγ/γt (Mus musculus, UniProt P51450, T352K); Curve Class: 4

With RORγ/γt (Mus musculus, UniProt P51450, T352K) as the test system, CCOC(=O)[C@H]1[C@H]2COc3cc(OC)ccc3[C@@H]2N2C(=O)N(c3ccc(Cl)cc3)C(=O)[C@@]12C showed Curve Class of 4
